biological target: human Cereblon WT GST-tagged protein (Homo sapiens, UniProt Q96SW2)
Sequence (Q96SW2 whole entry): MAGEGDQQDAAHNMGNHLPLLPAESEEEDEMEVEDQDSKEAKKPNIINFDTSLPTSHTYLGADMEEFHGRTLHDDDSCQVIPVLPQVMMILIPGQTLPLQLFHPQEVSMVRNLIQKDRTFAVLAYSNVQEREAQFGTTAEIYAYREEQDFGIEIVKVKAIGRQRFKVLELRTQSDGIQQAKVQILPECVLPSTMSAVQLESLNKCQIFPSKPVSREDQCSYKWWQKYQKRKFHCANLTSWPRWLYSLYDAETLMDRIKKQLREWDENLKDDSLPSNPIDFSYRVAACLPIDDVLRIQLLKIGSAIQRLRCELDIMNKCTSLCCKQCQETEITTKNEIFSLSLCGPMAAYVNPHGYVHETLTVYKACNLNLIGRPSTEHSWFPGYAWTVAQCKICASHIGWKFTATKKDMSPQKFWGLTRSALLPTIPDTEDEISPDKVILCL
endpoint: IC50

Task: Which IC50 is listed for "O=C1CCN(N2Cc3cc(CN4CCN(c5cccs5)CC4)ccc3C2=O)C(=O)N1" ?
Result: 1000 to 1500 nM

---

tested on: H2228; assay: Cell viability assay (CellTiter-Meiluncell Luminescent), tumor cell proliferation, H2228; settings: Homo sapiens, NCI-H2228, 96 h, read-out: Inhibition Rate at 500 nM (%)
endpoint: inhibition at 0.5 µM

Task: Would you mind telling me what inhibition at 0.5 µM value was observed for "CC(C)c1cc2c(C3=CCN(Cc4ccc5c(c4)CN(N4CCC(=O)NC4=O)C5=O)CC3)ncnc2s1" ?
Result: 60 to 80%

Task: Which inhibition at 0.5 µM is reported for this molecule? "O=C1CCN(N2Cc3cc(CN4CCN(c5ncnc6sc7c(c56)CCC7)CC4)ccc3C2=O)C(=O)N1"
Result: 20 to 25%

Task: Report inhibition at 0.5 µM for "O=C1CCN(N2Cc3cc(CN4CC=C(c5ncnc6sc(-c7ccccc7)cc56)CC4)ccc3C2=O)C(=O)N1" please.
Result: 40 to 60%

Task: # lookup: inhibition at 0.5 µM of "O=C1CCN(N2Cc3cc(CN4CCC(c5ncnc6sccc56)CC4)ccc3C2=O)C(=O)N1"
Result: 20 to 25%

Task: # inhibition at 0.5 µM lookup, item "Cc1sc2ncnc(N3CCN(Cc4ccc5c(c4)C(=O)N(N4CCC(=O)NC4=O)C5=O)CC3)c2c1C"
Result: 25 to 30%

Task: Dear colleague, I am looking for the recorded inhibition at 0.5 µM of the following molecule: "O=C1CCN(N2Cc3cc(CN4CCC(c5ncnc6sc7c(c56)CCCC7)CC4)ccc3C2=O)C(=O)N1"
Result: 25 to 30%

Task: For "Cc1sc2ncnc(C3=CCN(Cc4ccc5c(c4)CN(N4CCC(=O)NC4=O)C5=O)CC3)c2c1C" , what is its reported inhibition at 0.5 µM?
Result: 25 to 30%

Task: Reported inhibition at 0.5 µM for "Cc1csc2ncnc(N3CCN(Cc4ccc5c(c4)C(=O)N(N4CCC(=O)NC4=O)C5=O)CC3)c12" : what is it?
Result: 20 to 25%

Task: So what does the record say about inhibition at 0.5 µM for "Cc1nc(C2CCN(Cc3ccc4c(c3)C(=O)N(N3CCC(=O)NC3=O)C4=O)CC2)c2c3c(sc2n1)CCCC3" ?
Result: 25 to 30%

Task: Give the measured inhibition at 0.5 µM of "O=C1CCN(N2Cc3cc(CN4CCC(c5ncnc6scc(-c7ccccc7)c56)CC4)ccc3C2=O)C(=O)N1" .
Result: 20 to 25%

Task: Fill in: inhibition at 0.5 µM of "O=C1CCN(N2C(=O)c3ccc(CN4CCN(c5ncnc6scc(-c7ccccc7)c56)CC4)cc3C2=O)C(=O)N1" is ___
Result: 25 to 30%

Task: Look up inhibition at 0.5 µM for this molecule: "O=C1CCN(N2C(=O)c3ccc(CN4CCN(c5ncnc6sccc56)CC4)cc3C2=O)C(=O)N1"
Result: 20 to 25%

Task: Name the recorded inhibition at 0.5 µM for "Cc1nc(C2CCN(Cc3ccc4c(c3)CN(N3CCC(=O)NC3=O)C4=O)CC2)c2c3c(sc2n1)CCCC3" .
Result: 20 to 25%

Task: For "CC(C)c1cc2c(N3CCN(Cc4ccc5c(c4)C(=O)N(N4CCC(=O)NC4=O)C5=O)CC3)ncnc2s1" , what is its reported inhibition at 0.5 µM?
Result: 20 to 25%

Task: inhibition at 0.5 µM lookup needed for "O=C1CCN(N2Cc3cc(CN4CCC(c5ncnc6sc7c(c56)CCC7)CC4)ccc3C2=O)C(=O)N1" , thanks.
Result: 25 to 30%

Task: // lookup inhibition at 0.5 µM for "CC(C)c1cc2c(N3CCN(Cc4ccc5c(c4)CN(N4CCC(=O)NC4=O)C5=O)CC3)ncnc2s1"
Result: 30 to 40%

Task: Need inhibition at 0.5 µM, item "O=C1CCN(N2C(=O)c3ccc(CN4CCN(c5ncnc6sc(Br)cc56)CC4)cc3C2=O)C(=O)N1"
Result: 20 to 25%

Task: Which value of inhibition at 0.5 µM has been reported for "Cc1nc(C2CCN(Cc3ccc4c(c3)CN(N3CCC(=O)NC3=O)C4=O)CC2)c2ccsc2n1" in the records?
Result: 25 to 30%
